# TEST DETAILS: chemical genetic growth profiling, strain panel (AID 1159580);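 further: tested at 20 µM; growth read once vehicle control cultures reached saturation at 30 °C; 1 = growth at the plate median or of vehicle wells; lower values mean less growth of the strain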
# CONDITION LABEL: S. cerevisiae deletion strains, growth OD, locus YMR223W, strain ubp8
Out of some 5,500 compounds screened, about 2,000 (36%) were called active. Another 18% or so got no clear call; they are omitted. No stated cut-off is given here; in the data, active means normalized growth mostly below about 0.91 (no sharp cut-off); inconclusive means no clear call, values can overlap the other calls; inactive means mostly above about 0.92. The list shows a part of the results.
Permitted responses: active, inactive

Some solved entries appear below for comparison.
compound=CCCCCCCCCCCCCCCC[N+](C)(C)C class_name=active
compound="CCC(C)C(=O)O[C@H]1[C@H](O)C2C(CN3CC(C)CCC3[C@@]2(C)O)C2C[C@]34O[C@]5(O)C(OC(=O)C(C)(O)C(C)O)CC[C@@]3(C)C5C(OC(C)=O)[C@@H](OC(C)=O)C4[C@@]21O (stereo partly specified)" class_name=inactive
compound=COC1=CC(=O)C[C@@H](C)[C@]12Oc1c(Cl)c(OC)cc(OC)c1C2=O class_name=inactive

Fill in: this test's call for CC(=O)OC(C)(C)[C@@H]1Cc2cc3ccc(=O)oc3cc2O1 is ___
inactive

Fill in: this test's call for COc1cc(NC(C)CCCN)c2ncccc2c1 (stereo unspecified) is ___
inactive

Fill in: this test's call for C[N+](C)(C)CCCCCC[N+](C)(C)C is ___
inactive

Fill in: this test's call for CCCCNc1cc(C(=O)O)cc(S(N)(=O)=O)c1Oc1ccccc1 is ___
inactive

Fill in: this test's call for NCC1CCC(C(=O)O)CC1 (stereo unspecified) is ___
inactive

Fill in: this test's call for CC1(C)OC(=O)NC1=O is ___
inactive

Fill in: this test's call for COc1cc2c(cc1OC)Cc1cc(OC)c(OC)cc1Cc1cc(OC)c(OC)cc1C2 is ___
inactive

Fill in: this test's call for CC(C)(OC(=O)c1ccccc1)[C@@H]1Cc2cc3ccc(=O)oc3cc2O1 is ___
inactive

###

# TEST DETAILS: chemical genetic growth profiling, strain panel (AID 1159580)
# CONDITION LABEL: S. cerevisiae deletion strains, growth OD, locus YOR265W, strain rbl2, active compounds read low
Hit rate of the full screen: of about 5,500 compounds, about 2,000 (36%) were called active. Roughly 18% stayed inconclusive and do not appear here. The list shows a part of the results.
READOUT KIND: normalized growth
Simply state the number, no unit and no words.

compound=Cc1cc(O)c(C)c(O)c1C(=O)O numeric_readout=1
compound="CC(=O)OCC(=O)[C@@]1(O)CCC2C3CCC4=CC(=O)CC[C@]4(C)C3C(=O)C[C@@]21C (some centres not stated)" numeric_readout=0.991
compound="CC1=C(CC(=O)O)c2cc(F)ccc2/C1=C\\c1ccc(S(C)=O)cc1 (configuration not stated)" numeric_readout=1.02
compound=CCOC(=O)C(C)(C)Oc1ccc(Cl)cc1 numeric_readout=0.991
compound="ClC1=C(Cl)C2(Cl)C3C4C=CC(C4)C3C1(Cl)C2(Cl)Cl (configuration not stated)" numeric_readout=0.991

Here is another compound to look at.
Look at this compound and give its reported normalized growth. CCOC(=O)c1c(C)c(Cl)c(O)c(Cl)c1O
0.676

###

# TEST DETAILS: chemical genetic growth profiling, strain panel (AID 1159580);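 further: tested at 20 µM; growth read once vehicle control cultures reached saturation at 30 °C; 1 = growth at the plate median or of vehicle wells; lower values mean less growth of the strain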
# CONDITION LABEL: S. cerevisiae deletion strains, growth OD, locus YMR205C, strain PFK2, active compounds read low
In all, about 5,500 compounds went through this assay and about 2,000 (36%) were called active. About 18% were inconclusive and are not listed. Some of the results follow.
Catalogue of molecules with associated normalized growth
Simply state the number, no unit and no words.

Below, 5 molecules whose answers are already recorded.
molecule="CCN(CCO)CCCC(C)Nc1ccnc2cc(Cl)ccc12 (stereo not drawn)" readout_kind="normalized growth" numeric_readout=0.986
molecule="CN1CCCN=C1COC(=O)C(O)(c1ccccc1)C1CCCCC1 (stereo not drawn)" readout_kind="normalized growth" numeric_readout=0.993
molecule="CC(CCc1ccccc1)NC(C)C(O)c1ccc(O)cc1 (stereo not drawn)" readout_kind="normalized growth" numeric_readout=1.02
molecule="CN1CCc2cc3c(cc2[C@H]1C1OC(=O)c2c1ccc1c2OCO1)OCO3 (stereo partly drawn)" readout_kind="normalized growth" numeric_readout=0.98
molecule=COc1cc2c(cc1OC)[C@@H]1C(=O)c3ccc(O)c(CC=C(C)C)c3O[C@@H]1CO2 readout_kind="normalized growth" numeric_readout=1.02

Look at this molecule and give its reported normalized growth. OCCN1C[C@@H](O)[C@@H](O)C(O)C1CO (stereo partly drawn)
1

Look at this molecule and give its reported normalized growth. O=C(O)c1cc2ccccc2[nH]1
1.02

Look at this molecule and give its reported normalized growth. CNC(C)[C@H](O)c1ccccc1 (stereo partly drawn)
1

Look at this molecule and give its reported normalized growth. CN1CCC(=C2c3ccccc3CC(=O)c3sccc32)CC1
0.987

Look at this molecule and give its reported normalized growth. O=C1C=CC(=C(c2ccc(O)cc2)c2ccc(O)cc2)C=C1
0.995

Look at this molecule and give its reported normalized growth. O=C(O)c1cc2ccccc2c(Cc2c(O)c(C(=O)O)cc3ccccc23)c1O
1.01

Look at this molecule and give its reported normalized growth. c1cncc(C2CCCCN2)c1 (stereo not drawn)
1.02

Look at this molecule and give its reported normalized growth. O=C(O)C1(O)C[C@@H](O)C(O)[C@H](O)C1 (stereo partly drawn)
0.984

Look at this molecule and give its reported normalized growth. NCCSSCCN
0.992

Look at this molecule and give its reported normalized growth. CC(NCCc1ccc(O)cc1)C(O)c1ccc(O)cc1 (stereo not drawn)
1

Look at this molecule and give its reported normalized growth. CC1=C(/C=C/C(C)=C/C=C/C(C)=C/C=C/C=C(C)/C=C/C=C(C)/C=C/C(=O)[C@]2(C)C[C@@H](O)CC2(C)C)C(C)(C)C[C@H](O)C1
0.995

Look at this molecule and give its reported normalized growth. CC(N)C(=O)OC(C)(C)Cc1ccc(Cl)cc1 (stereo not drawn)
1.02

Look at this molecule and give its reported normalized growth. CC(C[N+](C)(C)C)OC(N)=O (stereo not drawn)
0.998

Look at this molecule and give its reported normalized growth. CCOC(=O)C(Cc1ccc(O)cc1)NC(C)=O (stereo not drawn)
0.997

Look at this molecule and give its reported normalized growth. CN[C@@H](C)[C@@H](O)c1ccccc1
0.984

Look at this molecule and give its reported normalized growth. C=Cc1c2[nH]c(c1C)C=c1[nH]c(c(C)c1C=C)=CC1N=C(C=c3[nH]c(c(C)c3CCC(=O)O)=C2)C(CCC(=O)O)=C1C (stereo not drawn)
1.02

Look at this molecule and give its reported normalized growth. COc1ccc2c3c1O[C@H]1C[C@@H](O)C=C[C@@]31CCN(C)C2
0.992

Look at this molecule and give its reported normalized growth. COc1ccc2cc([C@H](C)CO)ccc2c1
1.02

###

Catalogue of compounds with associated normalized growth
# TEST DETAILS: chemical genetic growth profiling, strain panel (AID 1159580);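 further: tested at 20 µM; growth read once vehicle control cultures reached saturation at 30 °C; 1 = growth at the plate median or of vehicle wells; lower values mean less growth of the strain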
# CONDITION LABEL: S. cerevisiae deletion strains, growth OD, locus YOR083W, strain WHI5, active compounds read low
Out of some 5,500 compounds screened, about 2,000 (36%) were called active. Roughly 18% stayed inconclusive and do not appear here. This is one part of the list.
Simply state the number, no unit and no words.

compound="CC(N)C(=O)OC(C)(C)Cc1ccc(Cl)cc1 (stereo not given)" numeric_readout=1.01

Look at this compound and give its reported normalized growth. COc1ccc2c(c1)OCc1c-2oc2cc(OC)ccc12
0.812

###

# TEST DETAILS: chemical genetic growth profiling, strain panel (AID 1159580);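 further: tested at 20 µM; growth read once vehicle control cultures reached saturation at 30 °C; 1 = growth at the plate median or of vehicle wells; lower values mean less growth of the strain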
# CONDITION LABEL: S. cerevisiae deletion strains, growth OD, locus YAL013W, strain DEP1, active compounds read low
The campaign covered roughly 5,500 compounds. About 2,000 (36%) were called active. Not shown: some 18% with an inconclusive outcome. Some of the results follow.
Returns: string. Value is 1 (yes) if measured normalized growth is below 1, and 0 (no) if it is greater than or equal to it.

cpd_smiles=c1ccc(N=Nc2ccc(Nc3ccccc3)cc2)cc1 class_name="1 (yes)"
cpd_smiles=Cc1cccc(Cn2c(C)c(C)c(S(=O)(=O)c3ccccc3)c2N)c1C class_name="0 (no)"
cpd_smiles=COc1cc2c(cc1OC)[C@@H]1C(=O)c3ccc(OC)c(CC=C(C)C)c3O[C@@H]1CO2 class_name="0 (no)"
cpd_smiles=CCOC(=O)c1cnc2c(cnn2CC)c1NN=C(C)C class_name="1 (yes)"
cpd_smiles=C[C@H]1O[C@@H](n2cc(F)c(=O)[nH]c2=O)[C@H](O)[C@@H]1O class_name="0 (no)"

Record CCCCCCCCCCCCCCCC[N+](C)(C)C : is its normalized growth strictly below 1?
1 (yes)

Record O=C(Oc1ccc(C(F)(F)F)cc1[N+](=O)[O-])c1c(F)cccc1F : is its normalized growth strictly below 1?
1 (yes)

Record O=S(=O)(Nc1cccc2cccnc12)c1cc(Cl)c(Cl)cc1Cl : is its normalized growth strictly below 1?
1 (yes)

Record CN(C)c1ccc(C(=C2C=CC(=[N+](C)C)C=C2)c2ccc(N(C)C)cc2)cc1 : is its normalized growth strictly below 1?
1 (yes)
